Measured binding signal, listed per entry for reference.
Target: T1, RBFOX1 RRM RbFoxmut (Fox-RRM*) (Homo sapiens, UniProt Q9NWB1 109-208, R118D;E147R;N151S;E152T)
T1 sequence: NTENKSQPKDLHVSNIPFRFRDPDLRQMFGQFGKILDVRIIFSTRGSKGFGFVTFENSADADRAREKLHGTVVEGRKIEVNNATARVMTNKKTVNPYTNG
Assay: EMSA; HiTS-Eq, 1 nM pool, 10 min; buffer printed only for the single-RNA assays: 10 mM Tris pH 7.5, 150 mM NaCl, 3.4 mM EDTA, 0.001% NP-40, 30 C
Conditions: tags: His6 N-terminal (pET28a); label: 5' 32P
Over roughly 16,000 sequences, “ka relative to ugcaugu” has its median near 0.096; the highest 2% begin near 0.35. The full list was thinned out, with the highest values kept by preference.

>  <binder>
UAAUUGU (DNA:RNA) RNA: GGGAGACCGGAAUUCAGAUUGUCCUAAUUGUUUAAAUCCCGUCGUAGCCACCA DNA 1: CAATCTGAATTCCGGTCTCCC DNA 2: TGGTGGCTACGACGGGATT

>  <measurement>
0.0755 KA relative to UGCAUGU

$$$$
>  <binder>
UGGUGGU (DNA:RNA) RNA: GGGAGACCGGAAUUCAGAUUGUCCUGGUGGUUUAAAUCCCGUCGUAGCCACCA DNA 1: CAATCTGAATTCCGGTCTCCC DNA 2: TGGTGGCTACGACGGGATT

>  <measurement>
0.161 KA relative to UGCAUGU

$$$$
>  <binder>
UGGUUGU (DNA:RNA) RNA: GGGAGACCGGAAUUCAGAUUGUCCUGGUUGUUUAAAUCCCGUCGUAGCCACCA DNA 1: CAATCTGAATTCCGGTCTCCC DNA 2: TGGTGGCTACGACGGGATT

>  <measurement>
0.396 KA relative to UGCAUGU

$$$$

input: Could you tell me which binding signal is on file for UGGUUCC (DNA:RNA) RNA: GGGAGACCGGAAUUCAGAUUGUCCUGGUUCCUUAAAUCCCGUCGUAGCCACCA DNA 1: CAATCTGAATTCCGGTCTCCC DNA 2: TGGTGGCTACGACGGGATT ?
output: 0.157 KA relative to UGCAUGU

input: Name the reported binding signal value associated with the binder CCCCUGG (DNA:RNA) RNA: GGGAGACCGGAAUUCAGAUUGUCCCCCCUGGUUAAAUCCCGUCGUAGCCACCA DNA 1: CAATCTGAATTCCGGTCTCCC DNA 2: TGGTGGCTACGACGGGATT
output: 0.0629 KA relative to UGCAUGU

input: Can you share its binding signal? I mean this binder: CUGGUUG (DNA:RNA) RNA: GGGAGACCGGAAUUCAGAUUGUCCCUGGUUGUUAAAUCCCGUCGUAGCCACCA DNA 1: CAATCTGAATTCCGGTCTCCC DNA 2: TGGTGGCTACGACGGGATT
output: 0.458 KA relative to UGCAUGU

input: Query (binder): UGGUUUC (DNA:RNA) RNA: GGGAGACCGGAAUUCAGAUUGUCCUGGUUUCUUAAAUCCCGUCGUAGCCACCA DNA 1: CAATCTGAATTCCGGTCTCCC DNA 2: TGGTGGCTACGACGGGATT ; field requested: binding signal
output: 0.183 KA relative to UGCAUGU

input: What does the data say about its binding signal? Entry: UGGUUGG (DNA:RNA) RNA: GGGAGACCGGAAUUCAGAUUGUCCUGGUUGGUUAAAUCCCGUCGUAGCCACCA DNA 1: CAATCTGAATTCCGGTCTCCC DNA 2: TGGTGGCTACGACGGGATT
output: 0.309 KA relative to UGCAUGU

input: For GUCCUGG (DNA:RNA) RNA: GGGAGACCGGAAUUCAGAUUGUCCGUCCUGGUUAAAUCCCGUCGUAGCCACCA DNA 1: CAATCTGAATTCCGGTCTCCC DNA 2: TGGTGGCTACGACGGGATT , what is its reported binding signal?
output: 0.075 KA relative to UGCAUGU
